Data provenance: patent US20220127297A1

Recorded MIC90, one value per entry.
Test system: clinical isolates of multidrug-resistant Pseudomonas aeruginosa (and ATCC27853)
Assay: MIC determination at Fidelta, clinical isolates
Type: cell-based
Details: P. aeruginosa ATCC27853 strain
Measured Attribute: MIC90 (µg/mL)

- N=C(N)NC1C(O)[C@@H](CO)OC(OC2C(F)[C@H](O[C@H]3OC(CN)[C@@H](O)CC3N)C(N)C[C@H]2NC(=O)[C@@H](O)CCN)[C@@H]1O (stereo partly shown): 0.25
- N=C(NC[C@@H]1CCCN1)NC1[C@@H](O)C(OC2[C@@H](F)[C@H](O[C@H]3OC(CN)[C@@H](O)CC3N)C(N)C[C@H]2NC(=O)[C@@H](O)CCN)O[C@H](CO)[C@H]1O (stereo partly shown): 1
- N=C(NC[C@@H]1CCNC1)NC1[C@@H](O)C(OC2[C@@H](F)[C@H](O[C@H]3OC(CN)[C@@H](O)CC3N)C(N)C[C@H]2NC(=O)[C@@H](O)CCN)O[C@H](CO)[C@H]1O (stereo partly shown): 0.5
- N=C(NCCN)NC1C(O)[C@@H](CO)OC(OC2C(F)[C@H](O[C@H]3OC(CN)[C@@H](O)CC3N)C(N)C[C@H]2NC(=O)[C@@H](O)CCN)[C@@H]1O (stereo partly shown): 0.25
